cell count: recorded values
experiment: inhibitors of TNFa-induced NFkB p65 translocation, primary screen, imaging, HUVEC, MLSMR starter and 10KST1 sets (AID 438); conditions: HUVEC TNFa-induced p65 nuclear translocation; measured here: nuclei count (cytotoxicity indicator), at 2.08 µM;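 also: compound added about 3h40 before a 20 min TNFalpha stimulation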

Please review the following examples before continuing.
MOLECULE: CCN(CC)C(=O)c1ccc(CS(=O)(=O)c2ccc(OC)cc2)o1
cell count: 560
--
MOLECULE: CCOc1ccc2[nH]c(=O)c(CN(Cc3nnnn3CCc3ccccc3)CC3CCCO3)cc2c1 (configuration not stated)
cell count: 742
--
MOLECULE: CC(C)Cc1nc(S(=O)(=O)c2ccc(Cl)cc2)c(N2CCOCC2)o1
cell count: 570
--
MOLECULE: O=C(C(c1ccccc1)c1ccccc1)N1CCN(Cc2ccccn2)CC1
cell count: 357
--
MOLECULE: COc1ccccc1N1CCN(C(=O)N2CCOCC2)CC1
cell count: 683
--
MOLECULE: COc1ccc(-n2c(SCC#N)nc3ccccc3c2=O)cc1
cell count: 314

Req: Please give the measured cell count for this molecule: `CCCCCCn1c(SCC(=O)OC)nc2c1c(=O)[nH]c(=O)n2C`
Resp: 502

Req: Looking for the measured cell count of `CCN(CCCNC(=O)C1CCN(S(=O)(=O)c2cccc3nonc23)CC1)Cc1ccccc1` , can you help?
Resp: 297

Req: Fill in the blank: the reported cell count of `CSc1ccc(Cn2nnc(C(=O)NCc3ccccc3)c2N)cc1` is ____.
Resp: 570

Req: // cell count lookup, key: CCNC(=O)CC1C(=O)N(c2ccccc2)C(=O)N1CCC(C)C (configuration not stated)
Resp: 339

Req: Sample `Cc1cc(=O)[nH]c(=S)n1-c1ccccc1` — what was its cell count?
Resp: 656

Req: So what does the record say about cell count for `CCOc1ccc(C(=O)CN2CCN(S(=O)(=O)c3ccc(OC)cc3)CC2)cc1` ?
Resp: 599

Req: Given the entry CCOC(=O)C1=C(C)N=c2s/c(=C\c3cccn3C)c(=O)n2C1c1cccc(OC)c1OC (configuration not stated) , report its measured cell count.
Resp: 342

Req: So what's the measured cell count for this one? Cc1ccc(N2C(=O)c3ccccc3C2O)nc1 (configuration not stated)
Resp: 627

Req: Please look up its cell count: `CCCn1c(N)c(C(=O)CSc2nnc(Cc3ccccc3)o2)c(=O)n(C)c1=O`
Resp: 412

Req: State the recorded cell count for this entry: `COc1cc(C(=O)Nc2cccc(-c3nncn3C)c2)cc(OC)c1OC`
Resp: 416

Req: Suppose we examine the molecule COc1cccc(NC(=O)N2CCN(C(=O)C(Cc3ccc(OC)c(OC)c3)NC(C)=O)CC2)c1 (configuration not stated) ; what cell count value has been reported?
Resp: 364

Req: Using the record for `COc1ccccc1OCCOc1ccccc1/C=N/n1cnnc1` , report its cell count.
Resp: 375

Req: If you can, please state the reported cell count value of `Cc1cc(C(=O)NCCCN2CCN(C3CCCCC3)CC2)n(-c2ccccc2)n1` .
Resp: 685

Req: What value of measured cell count is listed for `Cc1ccc(-c2nnc3c4ccccc4c(C)nn23)cc1NC(=O)c1ccco1` ?
Resp: 641

Req: // query cell count value for entry `Cc1ccc(NC(=O)c2ccccc2F)nc1`
Resp: 336

Req: Fill in the blank: the reported cell count of `Cn1c(=O)c2c(nc(SCCCC#N)n2Cc2ccccc2F)n(C)c1=O` is ____.
Resp: 601

Provenance of the data: PubChem BioAssay
